Tested on: OVCAR-5 ovarian
assay_info: NCI-60 one-dose screen, 48 h
test_parameters: 10 µM unless noted
About 83,000 compounds went through this panel and 20% of them were active in at least one assay; those are over-represented in the sample as a whole. Calls of active or inactive are those of the source. How the source made its calls: active means growth percent below 10; inactive means the rest.
Hi! Could you answer with just one of these? active, inactive

Example results:
Nc1nc(Nc2ccccc2SSc2ccccc2Nc2nc(N)nc(-c3cccc(Cl)c3)n2)nc(-c2cccc(Cl)c2)n1 = inactive
NS(=O)(=O)c1ccc(N2CC(c3nc4ccccc4[nH]3)CC2=O)cc1 (centres undefined) = inactive
CCCCCc1c(C)[nH]c(/C=C2\N=C(c3ccc[nH]3)C=C2Oc2ccccc2)c1C = active

Which outcome was assigned to `COc1ccccc1-n1c(-c2ccc(O)cc2C)cn2c3c(=O)[nH]c(=O)n(C)c3nc12` in this test?
inactive

Which outcome was assigned to `O=C(Nc1ccccc1OC(=O)c1ccccc1)c1ccccc1` in this test?
inactive

Which outcome was assigned to COc1cc(/C=C/C(=O)C(C(=O)/C=C/c2ccc(OC(=O)CCNC34CC5CC(CC(C5)C3)C4)c(OC)c2)C(=O)CCNC23CC4CC(CC(C4)C2)C3)ccc1OC(=O)CCNC12CC3CC(CC(C3)C1)C2 (centres undefined) in this test?
inactive

Which outcome was assigned to `CCOC(=O)CNC(=O)C1(NC(=O)CNC(=O)OCc2ccccc2)CCCC1` in this test?
inactive

Which outcome was assigned to `Nc1ncnc2c1CN(Cc1ccccc1)CC2` in this test?
inactive

Which outcome was assigned to `Cn1cc(NC(=O)Nc2cc(C(=O)O)n(C)c2)cc1C(=O)O` in this test?
inactive

Which outcome was assigned to CCC(C)C1NC(=O)C(CCNCS(=O)(=O)O)NC(=O)C(NC(=O)C(CCNCS(=O)(=O)O)NC(=O)C(NC(=O)C(CCNCS(=O)(=O)O)NC(=O)CCCCC(C)C)C(C)O)CCNC(=O)C(C(C)O)NC(=O)C(CCNCS(=O)(=O)O)NC(=O)C(CCNCS(=O)(=O)O)NC(=O)C(C(C)CC)NC1=O (centres undefined) in this test?
inactive

Which outcome was assigned to O=C(c1ccccc1)C(CN1CCCCC1)c1ccccc1 (centres undefined) in this test?
inactive

Which outcome was assigned to `N#Cc1c(NC(=O)c2ccco2)[n+]([O-])c2cc(Cl)c(Cl)cc2[n+]1[O-]` in this test?
inactive

Which outcome was assigned to `COc1cnc2c(c1)C(=O)c1c-2n(CCCN2CCCC2)c(=O)c2cc(F)ccc12` in this test?
active

Which outcome was assigned to `CCOC(=O)c1sc(NC(=O)COc2cccc(/C=C3\Cc4ccc(Cl)cc4C3=O)c2)nc1C` in this test?
inactive

All values here come from PubChem BioAssay (NCI).
